Provide the recorded Minimum inhibitory concentration for the entries that follow.
- Test system: Enterococcus 89
- ASSAY NOTES: Minimum inhibitory concentration, serial dilution in synthetic bacterial growth medium
- Type: cell-based
- EXPERIMENTAL SETUP: 35-37 °C, 16-20 hours
One number for each entry.

CC(C)[C@H](NC(=O)[C@H](N)CF)C(=O)O; 6.2
N[C@H](CF)C(=O)N[C@@H](CCC(=O)O)C(=O)O; 25
CC(C)(NC(=O)[C@H](N)CF)C(=O)O; 25
N[C@H](CF)C(=O)N[C@@H](Cc1ccccc1)C(=O)O; 25
C[C@H](NC(=O)[C@H](N)CF)C(=O)O; 200

Okay, next one:
For the compound shown here, CC(C)C[C@H](NC(=O)[C@H](N)CF)C(=O)O , give the reported Minimum inhibitory concentration. 25
